Test system: Calu-6
Assay: Tumor cell line growth
Assay type: cell-based
Conditions: Homo sapiens, Calu-6, 96 h; lung, 4 days
Experimental: The assay measures protein content of acid-fixed cells using the counterion binding dye sulforhodamine B (SRB, Sigma). […] After 5 washes with tap water, the dye was solubilized in 10 mM Tris base (100 μL per well) and absorbance read at 570 nm on a Dynatech plate reader model MR5000. Growth inhibition data are expressed as a percentage of absorbance detected in control wells which were treated with 0.4% DMSO alone. […] IC50 values were determined using a four parameter curve fit function. […]
Measurement Label: IC50 (µM)
State just the number; it will be interpreted in µM.

What measured IC50 is associated with `Cc1oncc1C(=O)Nc1ccc(C(F)(F)F)cc1` on Calu-6? 70
